test system: CCRF-CEM leukemia; assay: NCI-60 one-dose screen, 48 h (100 = growth as untreated, 0 = no growth, -100 = all killed); conditions: 10 µM unless noted
This is part of a sample that, as a whole, favours compounds with a hit. Of some 83,000 tested, about 20% had one in any assay.
For each record, write down the corresponding growth.
Numbers only, in %.

Take each entry in turn and give its growth.
1. NC(=O)c1c(NC(=S)Nc2ccc(OC(F)(F)F)cc2)sc2c1CCC1(C2)OCCO1
2. CC(C)NCCCNC1=C(Cl)C(=O)c2ccccc2C1=O
3. COc1cc(Cn2cc3c(c2)-c2oncc2CC3)cc(OC)c1OC

stdout:
1. 93.8
2. 76.6
3. 17.3

Take each entry in turn and give its growth.
1. COc1ccc2c(c1)NC1=C(C(=O)OC1)C2c1cc(OC)c2c(c1)OCO2 (centres undefined)
2. CC(=O)Oc1csc(N(C(C)=O)c2cc(C(=O)O)cc(C(=O)O)c2)n1
3. CN1CCN(Cc2ccc(NC(=O)c3nc4ccc5[nH]ncc5c4c4c3CCC4)cc2C(F)(F)F)CC1
4. Oc1ccccc1/C=N/NC(=S)NC1CC2C=CC1C2 (centres undefined)
5. O=c1[nH]c2ccc(Br)cc2c2c1C(c1ccc(Cl)cc1)c1c(ncn3nc(-c4ccco4)nc13)O2 (centres undefined)

stdout:
1. 10.1
2. 1.74
3. -9.12
4. 49.5
5. 73.9

stdin: Which measured growth value corresponds to CC(C)(C)n1cc(-c2ccnc(NCCCNS(=O)(=O)c3ccc(Cl)cc3)c2)c(-c2cccc(O)c2)n1 ?
stdout: 8.5

###

For each record, write down the corresponding growth.
system: MDA-MB-231 breast; experiment: NCI-60 one-dose screen, 48 h (100 = growth as untreated, 0 = no growth, -100 = all killed); settings: 10 µM unless noted
About 83,000 compounds went through this panel and 20% of them were active in at least one assay; those are over-represented in the sample as a whole. The source made the active and inactive calls. How the source made its calls: active means growth percent below 10; inactive means the rest.

Please review the following examples before continuing.
stdin: Which measured growth value corresponds to CCN1CCN(c2nc(NNC(=O)c3ccccc3)nc(N3CCN(C(c4ccccc4)c4ccccc4)CC3)n2)CC1 ?
stdout: 71.7% (inactive)

stdin: Which measured growth value corresponds to O=C(Nc1cccc(-n2cc(-c3ccncc3)c(-c3ccc(Cl)c(O)c3)n2)c1)c1ccc(N2CCOCC2)c(C(F)(F)F)c1 ?
stdout: 23.4% (inactive)

stdin: Which measured growth value corresponds to CCOC(=O)C1=C(C)NC(C)=C(C(=O)OCC)C1(C)C ?
stdout: 98.8% (inactive)

Take each entry in turn and give its growth.
1. OCc1ncc(-c2ccccc2)s1
2. Cc1[nH]c2ccc(F)cc2c1CCNC(=O)C1CCN(C(=O)c2ccccc2)CC1

stdout:
1. 113% (inactive)
2. 79.4% [25 µM] (inactive)

###

Test system: HCT-116 colon
Experiment: NCI-60 one-dose screen, 48 h (100 = growth as untreated, 0 = no growth, -100 = all killed)
Conditions: 10 µM unless noted
Procedure: Growth inhibition of the HCT-116 human tumor cell line is measured as a screen for anti-cancer activity. Cells are grown in 96 well plates and exposed to the test compound for 48 hours. Compounds are tested at a single concentration, which is 10^-5 M for most compounds. The reported endpoint is percent growth (GI% or GIPRCNT), where numbers from 0 - 100% represent growth inhibition, and numbers from -100% - 0 represent cell death. For example, a value of 40 represents 60% growth inhibition. […]
The panel holds about 83,000 compounds, 20% with a hit somewhere; the sample as a whole holds those more often.
Entry flag: label 1 if growth reaches 20%; label 0 if it does not.

Below, 8 compounds whose answers are already recorded.
stdin: Textbook exercise: given the entry COc1ccc(C(=O)NC(=O)Nc2cc3c(cc2F)/C(=C/c2[nH]c(C)c(CCC(=O)O)c2C)C(=O)N3)c(F)c1 , state whether its growth is greater than or equal to 20%.
stdout: label 1

stdin: Textbook exercise: given the entry COc1ccc(-c2ccc(C)n2-c2ccc(-c3nc4cc(Cl)ccc4s3)cc2)cc1 , state whether its growth is greater than or equal to 20%.
stdout: label 1

stdin: Textbook exercise: given the entry C=C1C(=O)O[C@H]2[C@H]1CC/C(Cn1cc(CNC(=O)c3cc4ccccc4[nH]3)nn1)=C\CC[C@@]1(C)O[C@@H]21 , state whether its growth is greater than or equal to 20%.
stdout: label 0

stdin: Textbook exercise: given the entry COc1ccc(-c2cnoc2-c2ccc(OC)cc2O)cc1 , state whether its growth is greater than or equal to 20%.
stdout: label 0

stdin: Textbook exercise: given the entry Nc1nnc(-c2ccc3ccccc3c2O)o1 , state whether its growth is greater than or equal to 20%.
stdout: label 1

stdin: Textbook exercise: given the entry COc1cccc(/C=C2\Oc3cc(OCCCN4CCCC4)ccc3C2=O)c1 , state whether its growth is greater than or equal to 20%.
stdout: label 1

stdin: Textbook exercise: given the entry O=C(O)c1nc(-c2ccccc2)oc1N1CCOCC1 , state whether its growth is greater than or equal to 20%.
stdout: label 1

stdin: Textbook exercise: given the entry COc1ccc(S(=O)(=O)Nc2cc(/C=C\c3cc(OC)c(OC)c(OC)c3)cc(OC)c2OC)cc1 , state whether its growth is greater than or equal to 20%.
stdout: label 0

---
stdin: Textbook exercise: given the entry Clc1cc2c(nn1)Nc1ccccc1S2 , state whether its growth is greater than or equal to 20%.
stdout: label 1

stdin: Textbook exercise: given the entry Cc1cc(C2(c3cc(C)c(O)cc3C)OS(=O)(=O)c3ccccc32)c(C)cc1O , state whether its growth is greater than or equal to 20%.
stdout: label 1
